- Assay System: CK1ε (Homo sapiens, UniProt P49674)
- Construct: purchased Invitrogen
- Sequence (P49674 whole entry): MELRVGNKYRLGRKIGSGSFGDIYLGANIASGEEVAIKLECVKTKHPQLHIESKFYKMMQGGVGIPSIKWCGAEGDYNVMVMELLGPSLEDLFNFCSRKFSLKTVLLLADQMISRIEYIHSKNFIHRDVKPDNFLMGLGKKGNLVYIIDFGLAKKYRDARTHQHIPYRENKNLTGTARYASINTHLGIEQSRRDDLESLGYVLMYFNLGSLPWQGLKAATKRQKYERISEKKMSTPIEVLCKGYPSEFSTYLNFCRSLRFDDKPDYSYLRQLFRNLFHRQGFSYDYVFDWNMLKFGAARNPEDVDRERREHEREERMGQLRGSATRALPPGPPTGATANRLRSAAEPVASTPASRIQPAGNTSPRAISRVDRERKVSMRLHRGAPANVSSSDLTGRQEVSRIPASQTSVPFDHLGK
- Assay Method Text: In vitro kinase assay (33P, peptide substrate)
- Type: biochemical
- Applied Conditions: CK1ε, 50 μM ATP; read-out: IC50
Property: IC50 (µM)
Write down the numeric answer in µM and omit the unit.

State the recorded IC50 for this entry: NC(=O)c1cc(-c2ccncc2)c[nH]1 17.3

---

- Assay System: CK1δ (Homo sapiens)
- Construct: purchased Upstate
- Sequence (P48730 whole entry): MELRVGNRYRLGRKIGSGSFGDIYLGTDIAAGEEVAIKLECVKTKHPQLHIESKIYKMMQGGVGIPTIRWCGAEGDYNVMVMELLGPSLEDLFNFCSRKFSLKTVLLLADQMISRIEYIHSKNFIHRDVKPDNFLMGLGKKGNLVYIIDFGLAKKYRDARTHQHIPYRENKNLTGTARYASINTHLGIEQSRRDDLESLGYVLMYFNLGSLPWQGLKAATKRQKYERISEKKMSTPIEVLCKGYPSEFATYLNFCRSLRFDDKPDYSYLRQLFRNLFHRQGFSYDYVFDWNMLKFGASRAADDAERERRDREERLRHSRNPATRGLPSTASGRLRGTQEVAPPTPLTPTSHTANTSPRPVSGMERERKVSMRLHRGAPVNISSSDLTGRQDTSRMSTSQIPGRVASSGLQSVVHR
- Assay Method Text: In vitro kinase assay (33P, peptide substrate)
- Type: biochemical
- Applied Conditions: CK1δ, 50 μM ATP; read-out: IC50
Property: pIC50
pIC50 here: minus log base 10 of the concentration, concentration in moles per litre.

Name the reported pIC50 value associated with the compound NC(=O)c1cc(-c2ccncc2)c[nH]1 [Compound A] 5.12
